The entries below are paired with their reported combination Emax.
Tested on: MOG-G-CCM (Low Grade Glioma)
Assay: combination Emax (second highest fraction inhibited in the dose matrix, 72 h); higher = more inhibition; extreme values may be limits of the assay
Reply briefly: the number, and no unit.

According to the records, this molecule CN(C)CCCOc1ccc(-c2ccc3ncc4c(c3c2)n(C2CCOCC2)c(=O)n4C)cn1 [AZD0156] + CCN(CCO)CCCOc1ccc2c(Nc3cc(CC(=O)Nc4cccc(F)c4)[nH]n3)ncnc2c1 [AZD2811] (first compound max 1 µM, 7x7, partner max 1 µM) displays combination Emax of 0.367

According to the records, this molecule O=C(c1cc(Cc2n[nH]c(=O)c3ccccc23)ccc1F)N1CCN(C(=O)C2CC2)CC1 [Olaparib] + CN(CC[C@H](CSC1=CC=CC=C1)NC2=C(C=C(C=C2)S(=O)(=O)NC(=O)C3=CC=C(C=C3)N4CCC(CC4)[C@H](C5=CC=CC=C5C6=CC=C(C=C6)Cl)O)S(=O)(=O)C(F)(F)F)CCO [AZD4320] (first compound max 10 µM, 7x7, partner max 1 µM) displays combination Emax of 0.445

Origin of values: the supplement of paper PMC11061612
